Values from patent US8067454B2

System: HCC-2998
Test: NCI 60-cell drug screen, Colon Cancer HCC-2998
Format: cell-based, human
Conditions: 1.00E−5 Molar
Quick reference: Growth Percent, HCC-2998 of the listed items.
readout-kind: Growth Percent, HCC-2998 (%)

1) CCCSc1nc2ccc3c(c2[nH]1)C(=O)c1ccccc1C3=O	81.92
2) O=C1c2ccccc2C(=O)c2c1ccc1nc3n(c21)CCS3	94.76
3) CN(C)CCCSc1nc2ccc3c(c2[nH]1)C(=O)c1ccccc1C3=O	72.67
4) O=C1c2ccccc2C(=O)c2c1ccc1nc(S)[nH]c21	113.65
5) CCSc1nc2ccc3c(c2[nH]1)C(=O)c1ccccc1C3=O	89.42
6) O=C1c2ccccc2C(=O)c2c1ccc1nc(SCCN3CCCC3)[nH]c21	71.50
